Let's go through some pIC50 measurements on TANK binding kinase (TBK1) (Homo sapiens (Human)) together.
pIC50: −log10 of the molar value.
endpoint.label: pIC50

INSERT INTO results (compound, endpoint_label, reported_result) VALUES
  ('N#Cc1cc(-c2ccnc(Nc3cnn(CCC4CCNCC4)c3)c2)ccc1OC1CCOCC1 [Compound A21]', 'pIC50', 7.15),
  ('N#Cc1cc(-c2ccnc(Nc3cc(C4CCNCC4)ccn3)c2)ccc1OC1CCOCC1 [Compound A74]', 'pIC50', 8.70),
  ('N#Cc1cc(-c2ccnc(Nc3cnn(CC4CCOC4)c3)n2)ccc1OC1CCOCC1 (stereo not shown) [Compound A41]', 'pIC50', 7.92),
  ('N#Cc1cc(-c2ccnc(Nc3cnn(C[C@H]4C[C@@H]4CO)c3)c2)ccc1OC1CCOCC1 [Compound A26]', 'pIC50', 7.74);

---

Consider the following pIC50 values measured on IKKε (Homo sapiens (Human)).
Sequence (Q14164 whole entry): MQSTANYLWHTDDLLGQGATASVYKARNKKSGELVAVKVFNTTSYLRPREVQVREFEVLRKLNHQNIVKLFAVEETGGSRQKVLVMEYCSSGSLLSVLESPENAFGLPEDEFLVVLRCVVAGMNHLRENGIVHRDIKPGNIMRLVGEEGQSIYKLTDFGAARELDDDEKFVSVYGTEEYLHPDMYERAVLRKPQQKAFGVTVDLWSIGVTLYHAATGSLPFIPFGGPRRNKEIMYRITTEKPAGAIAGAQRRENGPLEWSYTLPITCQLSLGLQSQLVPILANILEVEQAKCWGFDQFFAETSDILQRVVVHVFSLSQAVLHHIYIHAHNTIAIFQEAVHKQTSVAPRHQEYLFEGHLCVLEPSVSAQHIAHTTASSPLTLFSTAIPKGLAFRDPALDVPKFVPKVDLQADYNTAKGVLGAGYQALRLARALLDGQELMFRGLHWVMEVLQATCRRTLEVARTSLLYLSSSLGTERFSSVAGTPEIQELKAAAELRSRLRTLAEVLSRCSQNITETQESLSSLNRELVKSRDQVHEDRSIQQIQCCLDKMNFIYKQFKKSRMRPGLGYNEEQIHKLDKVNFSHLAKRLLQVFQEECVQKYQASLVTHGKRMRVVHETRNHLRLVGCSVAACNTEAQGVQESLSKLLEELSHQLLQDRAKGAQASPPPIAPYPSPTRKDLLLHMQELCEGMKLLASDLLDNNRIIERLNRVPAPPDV
pIC50: −log10 of the molar value.
endpoint.label: pIC50

INSERT INTO assay_data (compound, measurement_target, endpoint_label, reported_result) VALUES
  ('N#Cc1cc(-c2ccnc(Nc3cn[nH]c3)c2)ccc1OCC1CC1', 'IKKε (Homo sapiens (Human))', 'pIC50', 7.02),
  ('N#Cc1cc(-c2ccnc(Nc3cccc(C4CCNCC4)n3)c2)ccc1OC1CCOCC1', 'IKKε (Homo sapiens (Human))', 'pIC50', 8.10),
  ('COCCn1cc(Nc2nccc(-c3ccc(OC4CCOCC4)c(C#N)c3)n2)cn1', 'IKKε (Homo sapiens (Human))', 'pIC50', 7.74),
  ('COCCn1cc(Nc2nccc(-c3ccc(OCC4CCC4)c(C#N)c3)n2)cn1', 'IKKε (Homo sapiens (Human))', 'pIC50', 8.10),
  ('N#Cc1cc(-c2ccnc(Nc3ccc(CN4CCOCC4)cn3)c2)ccc1OC1CCOCC1', 'IKKε (Homo sapiens (Human))', 'pIC50', 7.60),
  ('N#Cc1cc(-c2ccnc(Nc3cnn(CCn4cccn4)c3)c2)ccc1OC1CCOCC1', 'IKKε (Homo sapiens (Human))', 'pIC50', 6.49),
  ('N#Cc1cc(-c2ccnc(Nc3cnn([C@H]4CC[C@H](O)CC4)c3)n2)ccc1OC1CCOCC1', 'IKKε (Homo sapiens (Human))', 'pIC50', 8.30),
  ('N#Cc1cc(-c2ccnc(Nc3ccc(N4CCOCC4)cn3)c2)ccc1OCC1CC1', 'IKKε (Homo sapiens (Human))', 'pIC50', 7.35),
  ('N#Cc1cc(-c2ccnc(Nc3cn[nH]c3)c2)ccc1OCC1CCC1', 'IKKε (Homo sapiens (Human))', 'pIC50', 6.85),
  ('Cn1ccc(Nc2cc(-c3ccc(OC4CCOCC4)c(C#N)c3)ccn2)n1', 'IKKε (Homo sapiens (Human))', 'pIC50', 6.96),
  ('N#Cc1cc(-c2ccnc(Nc3ccc(=O)[nH]n3)n2)ccc1OC1CCOCC1', 'IKKε (Homo sapiens (Human))', 'pIC50', 6.19),
  ('N#Cc1cc(-c2ccnc(Nc3cnn(C4CNC4)c3)c2)ccc1OC1CCOCC1', 'IKKε (Homo sapiens (Human))', 'pIC50', 7.17),
  ('N#Cc1cc(-c2ccnc(Nc3ccc(N4CCOCC4)cn3)c2)ccc1OC1CCOCC1', 'IKKε (Homo sapiens (Human))', 'pIC50', 7.82),
  ('N#Cc1cc(-c2ccnc(Nc3cnn(CC4CCOC4)c3)c2)ccc1OC1CCOCC1 (stereo not drawn)', 'IKKε (Homo sapiens (Human))', 'pIC50', 7.11),
  ('CN1CCC(c2ccnc(Nc3cc(-c4ccc(OC5CCOCC5)c(C#N)c4)ccn3)c2)CC1', 'IKKε (Homo sapiens (Human))', 'pIC50', 8.22),
  ('Cn1nc(Nc2nccc(-c3ccc(OC4CCOCC4)c(C#N)c3)n2)ccc1=O', 'IKKε (Homo sapiens (Human))', 'pIC50', 6.70),
  ('N#Cc1cc(-c2ccnc(Nc3cnn(CC4CCOC4)c3)n2)ccc1OC1CCOCC1 (stereo not drawn)', 'IKKε (Homo sapiens (Human))', 'pIC50', 7.60),
  ('N#Cc1cc(-c2ccnc(Nc3cc(C4CCNCC4)ccn3)c2)ccc1OC1CCOCC1', 'IKKε (Homo sapiens (Human))', 'pIC50', 9.00),
  ('N#Cc1cc(-c2ccnc(Nc3cnn(CCn4cccn4)c3)n2)ccc1OC1CCOCC1', 'IKKε (Homo sapiens (Human))', 'pIC50', 7.19),
  ('N#Cc1cc(-c2ccnc(Nc3cc(N4CCOCC4)ccn3)c2)ccc1OC1CCOCC1', 'IKKε (Homo sapiens (Human))', 'pIC50', 6.82),
  ('CC(=O)N1CCC(COc2ccc(-c3ccnc(Nc4cnn(C5CCNCC5)c4)c3)cc2C#N)CC1', 'IKKε (Homo sapiens (Human))', 'pIC50', 6.72),
  ('N#Cc1cc(-c2ccnc(Nc3cc(CO)ccn3)n2)ccc1OC1CCOCC1', 'IKKε (Homo sapiens (Human))', 'pIC50', 6.85),
  ('N#Cc1cc(-c2ccnc(Nc3ccc(CO)cn3)c2)ccc1OCC1CC1', 'IKKε (Homo sapiens (Human))', 'pIC50', 7.34),
  ('COCCn1cc(Nc2cc(-c3ccc(OCC4CCC4)c(C#N)c3)ccn2)cn1', 'IKKε (Homo sapiens (Human))', 'pIC50', 7.09),
  ('N#Cc1cc(-c2ccnc(Nc3cc(C4CC4)n[nH]3)c2)ccc1OC1CCOCC1', 'IKKε (Homo sapiens (Human))', 'pIC50', 7.60),
  ('CC(=O)N1CCC(COc2ccc(-c3ccnc(Nc4ccc(CO)cn4)c3)cc2C#N)CC1', 'IKKε (Homo sapiens (Human))', 'pIC50', 5.96),
  ('N#Cc1cc(-c2ccnc(Nc3ccc(-c4cn[nH]c4)cn3)c2)ccc1OC1CCOCC1', 'IKKε (Homo sapiens (Human))', 'pIC50', 7.00),
  ('N#Cc1cc(-c2ccnc(Nc3ccc(C(N)=O)cn3)c2)ccc1OC1CCOCC1', 'IKKε (Homo sapiens (Human))', 'pIC50', 7.68),
  ('N#Cc1cc(-c2ccnc(Nc3cnn(CCN4CCOCC4)c3)n2)ccc1OC1CCOCC1', 'IKKε (Homo sapiens (Human))', 'pIC50', 7.60),
  ('N#Cc1cc(-c2ccnc(Nc3ncc4c(n3)CCNC4)c2)ccc1OC1CCOCC1', 'IKKε (Homo sapiens (Human))', 'pIC50', 6.85),
  ('N#Cc1cc(-c2ccnc(Nc3cc(C(=O)O)ccn3)c2)ccc1OC1CCOCC1', 'IKKε (Homo sapiens (Human))', 'pIC50', 6.92),
  ('N#Cc1cc(-c2ccnc(Nc3cnn(CC(F)F)c3)n2)ccc1OC1CCOCC1', 'IKKε (Homo sapiens (Human))', 'pIC50', 8.00),
  ('CC(=O)N1CCC(COc2ccc(-c3ccnc(Nc4ccc(N5CCOCC5)cn4)c3)cc2C#N)CC1', 'IKKε (Homo sapiens (Human))', 'pIC50', 6.21),
  ('N#Cc1cc(-c2ccnc(Nc3cnn(CCO)c3)n2)ccc1OC1CCOCC1', 'IKKε (Homo sapiens (Human))', 'pIC50', 8.40),
  ('N#Cc1cc(-c2ccnc(Nc3ncccn3)c2)ccc1OC1CCOCC1', 'IKKε (Homo sapiens (Human))', 'pIC50', 5.92),
  ('N#Cc1cc(-c2ccnc(Nc3cnn(CCO)c3)c2)ccc1OC1CCOCC1', 'IKKε (Homo sapiens (Human))', 'pIC50', 7.04);

---

The following molecules each carry a recorded IC50 for TANK binding kinase (TBK1) (Homo sapiens (Human), UniProt Q9UHD2).
endpoint.label: IC50 (nM)

INSERT INTO assay_data (molecule, reported_result) VALUES
  ('N#Cc1cc(-c2ccnc(Nc3cnc(C4CCOCC4)cn3)c2)ccc1OC1CCOCC1 [Compound A98]', 5),
  ('N#Cc1cc(-c2ccnc(Nc3cnn(C4CCNC4)c3)c2)ccc1OC1CCOCC1 (centres unmarked) [Compound A28]', 280),
  ('Cc1cc(Nc2nccc(-c3ccc(OC4CCOCC4)c(C#N)c3)n2)no1 [Compound A80]', 230),
  ('N#Cc1cc(-c2ccnc(Nc3cc(N4CCOCC4)ccn3)c2)ccc1OC1CCOCC1 [Compound A82]', 230),
  ('Cn1nc(Nc2nccc(-c3ccc(OC4CCOCC4)c(C#N)c3)n2)ccc1=O [Compound A68]', 160),
  ('N#Cc1cc(-c2ccnc(Nc3cnn(CCO)c3)n2)ccc1OCC1CCC1 [Compound A94]', 14),
  ('N#Cc1cc(-c2ccnc(Nc3cncc(C4CCNCC4)n3)c2)ccc1OC1CCOCC1 [Compound A96]', 24),
  ('N#Cc1cc(-c2ccnc(Nc3cc(C4CC4)n[nH]3)c2)ccc1OC1CCOCC1 [Compound A12]', 30);

---

target: TANK binding kinase (TBK1) (Homo sapiens (Human), UniProt Q9UHD2)
Sequence (Q9UHD2 whole entry): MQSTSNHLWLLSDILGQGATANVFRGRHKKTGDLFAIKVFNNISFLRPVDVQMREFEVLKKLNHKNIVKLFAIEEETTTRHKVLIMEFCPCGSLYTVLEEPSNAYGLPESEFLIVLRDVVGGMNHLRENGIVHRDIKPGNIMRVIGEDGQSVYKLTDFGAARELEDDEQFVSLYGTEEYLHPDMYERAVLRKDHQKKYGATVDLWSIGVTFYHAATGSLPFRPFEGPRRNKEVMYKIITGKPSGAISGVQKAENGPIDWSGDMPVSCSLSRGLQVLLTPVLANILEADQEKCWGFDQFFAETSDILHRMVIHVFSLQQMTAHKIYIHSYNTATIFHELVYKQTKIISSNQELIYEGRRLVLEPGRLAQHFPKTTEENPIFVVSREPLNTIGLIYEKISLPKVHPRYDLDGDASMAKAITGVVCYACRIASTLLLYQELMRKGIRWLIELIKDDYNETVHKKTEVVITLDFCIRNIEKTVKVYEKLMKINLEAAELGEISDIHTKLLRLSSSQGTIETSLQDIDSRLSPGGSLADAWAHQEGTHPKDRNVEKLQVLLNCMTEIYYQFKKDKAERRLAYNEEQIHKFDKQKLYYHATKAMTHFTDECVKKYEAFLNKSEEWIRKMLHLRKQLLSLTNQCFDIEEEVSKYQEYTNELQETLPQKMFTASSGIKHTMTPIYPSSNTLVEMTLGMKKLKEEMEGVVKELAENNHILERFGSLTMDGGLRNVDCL
pIC50: −log10 of the molar value.
Answer label 0 if pIC50 is under 7, and label 1 if it is 7 or more.

INSERT INTO assay_data (smiles_repr, group) VALUES
  ('COCCn1cc(Nc2cc(-c3ccc(OCC4CCN(C(C)=O)CC4)c(C#N)c3)ccn2)cn1', 'label 0'),
  ('N#Cc1cc(-c2ccnc(Nc3ccc(CN4CC5(COC5)C4)cn3)c2)ccc1OC1CCOCC1', 'label 1'),
  ('N#Cc1cc(-c2ccnc(Nc3cnn(C4CNC4)c3)c2)ccc1OC1CCOCC1', 'label 0'),
  ('N#Cc1cc(-c2ccnc(Nc3ccc(N4CCOCC4)cn3)c2)ccc1OC1CCOCC1', 'label 1');
